- System Name: T1, recombinant human ILT4 (LILRB2) (human, UniProt Q8N423 22-460)
- T1 construct: Bought protein (Acro Biosystems or R&D Systems); also called ILTR4
- T1 sequence (Q8N423 other isoform, or with tags, fused parts or gaps limits assumed): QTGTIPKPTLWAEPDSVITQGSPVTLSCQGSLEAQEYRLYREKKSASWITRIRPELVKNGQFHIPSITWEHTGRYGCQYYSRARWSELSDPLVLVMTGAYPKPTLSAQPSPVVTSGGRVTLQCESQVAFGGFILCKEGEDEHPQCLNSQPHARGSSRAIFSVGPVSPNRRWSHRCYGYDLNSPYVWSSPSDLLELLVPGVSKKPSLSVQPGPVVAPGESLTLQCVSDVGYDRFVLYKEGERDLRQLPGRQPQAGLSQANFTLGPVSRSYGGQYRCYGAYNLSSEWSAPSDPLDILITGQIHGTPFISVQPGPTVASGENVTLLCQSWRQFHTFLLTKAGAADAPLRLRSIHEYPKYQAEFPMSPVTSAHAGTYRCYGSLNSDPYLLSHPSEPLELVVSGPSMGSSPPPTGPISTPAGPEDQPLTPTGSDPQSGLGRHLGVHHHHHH
- Test Name: KinExA, solution equilibrium, n-curve analysis
Examples of binders with documented Kd follow.
Recorded Endpoint: Kd

INSERT INTO measurements (binder, value_reported) VALUES
  ('Hz45.01-LALA (antibody, human IgG1, kappa, L234A L235A, V domains shown, Humanized L45S4, human IgG1 L234A/L235A, kappa; also called Humanized 45_01; Hu IgG 45_01 LALA) VH: QVQLVQSGAEVKKPGASVKVSCKASGYTFTDYYMNWVRQAPGQRLEWIGDINPNNGGTSYNQKFKGRATITVDTSASTAYMELSSLRSEDTAVYYCARGGAELTGTYWYFDVWGQGTTVTVSS VL: DIQMTQSPSSLSASVGDRVTITCRASENIYSNLAWYQQKPGKAPKVLVYGATNLADGVPSRFSGSGSGTEYTLTISSLQPEDFATYYCQHFWDSPFTFGGGTKVEIKR', '85.1 pM'),
  ('Hz156.03-LALA (antibody, human IgG1, kappa, L234A L235A, V domains shown, Humanized L156S3, human IgG1 L234A/L235A, kappa) VH: QVQLVQSGAEVKKPGSSVKVSCKASGYTFTDYYMNWVRQAPGQGLEWIARIYPGVYRTHYNEKFKDRVTLTADKSTSTAYMELSSLRSEDTAVYYCARSGYYGGTYEEDAMDYWGQGTTVTVSS VL: DIQMTQSPSSLSASVGDRVTITCRASENIYSNLAWYQQKPGKAPKLLVYAATSLADGVPSRFSGSGSGTDYTLTISSLQPEDFATYYCQNFWDTPYTFGQGTKVEIKR', '9.16 pM'),
  ('Hz180-LALA (antibody, human IgG1, kappa, L234A L235A, V domains shown, Humanized L180S4, human IgG1 L234A/L235A, kappa; also called Humanized 180_04; Hz 180 04) VH: QVQLVQSGAEVKKPGSSVKVSCKASGYSFIGYFMNWMRQAPGQGLEWIGRINPYNGDIFYNQKFKGRVTITVDKSTSTAYMELSSLRSEDTAVYYCARGITVAAGSFDVWGQGTTVTVSS VL: DIVMTQSPDSLAVSLGERATINCRASESVDNYGNTFMHWYQQKPGQPPKLLIYRASNLESGIPDRFSGSGSGTDFTLTISSLQAEDVAVYYCQQSSDHPLTFGGGTKVEIKR', '0.759 pM'),
  ('Hz77-LALA (antibody, human IgG1, kappa, L234A L235A, V domains shown, Humanized L77S2, human IgG1 L234A/L235A, kappa; also called Humanized 77_01; Hz 77 01) VH: QVQLVQSGAEVKKPGSSVKVSCKASGYSFTGYSVNWVRQAPGQGLEWIGRINPYNGDIFNNQKFKGRATITVDKSTSTAYMELSSLRSEDTAVYYCARGTTVGGAWFAYWGQGTLVTVSS VL: DIVMTQSPDSLAVSLGERATINCRASESVDSYGYSFLHWYQQKPGQPPKLLIYLASNLESGIPDRFSGSGSGTDFTLTISSLQAEDVAVYYCQQSNEDLMYTFGGGTKVEIKR', '5.46 pM');
